testProtocol: NCI Yeast Anticancer Drug Screen. Data for the mgt1 strain (AID 153)
conditionSet: S. cerevisiae mgt1 mutant growth inhibition; at 1.2 µM
The panel holds about 79,000 compounds, 15% with a hit somewhere; the sample as a whole holds those more often. The source made the active and inactive calls. Cut-off read from the data, not from the text of the source: active = growth inhibition above about 70%; inactive = the rest.
// one of 1.0 = active, 0.0 = inactive, no free text

Past entries and their recorded results:
>  <compound>
CCC(/C=C/c1ccccc1)=N\Nc1ccc(Cl)c(Cl)c1

>  <assignedLabel>
0.0

$$$$
>  <compound>
Cc1oc2ccccc2c(=O)c1Cn1nnc2ccccc21

>  <assignedLabel>
0.0

$$$$
>  <compound>
CCCCCCCCCCCCCCCCCCNc1nc(=O)n(C2CC(OP(=O)(O)OCC3OC(n4cc(F)c(=O)[nH]c4=O)CC3O)C(CO)O2)cc1F (stereo not given)

>  <assignedLabel>
0.0

$$$$
>  <compound>
S=C(NCc1ccccn1)N/N=C/c1ccccn1

>  <assignedLabel>
1.0

$$$$

**Query** In this assay, the call recorded for COc1c2c(c3c(c1CCC(=O)O)OC(C)(C)C=C3)OC(C)(C)C=C2 was what?
**Result** 0.0

* * *

testProtocol: NCI Yeast Anticancer Drug Screen. Data for the mlh1 rad18 strain (AID 175)
conditionSet: S. cerevisiae mlh1 rad18 strain growth inhibition; at 5.0 µM (retest, dose inferred, filed as 0.5); hits give high values
This is part of a sample that, as a whole, favours compounds with a hit. Of some 79,000 tested, about 15% had one in any assay.
measuredAttribute: growth inhibition (%)
A number alone suffices; assume %.

Consider the worked cases shown below.
>  <compound>
O=C(NCCCCN1CC2CCCC2C1)C(C1CCCCC1)C1CCCCC1 (stereo unspecified)

>  <unitString>
%

>  <readoutNumber>
16

$$$$
>  <compound>
Cc1ccc([N+](=O)[O-])c2c(NCCC[N+](C)(C)[O-])c3ccccc3nc12

>  <unitString>
%

>  <readoutNumber>
31

$$$$
>  <compound>
C=C(C(=O)OC)N1C(=O)CC(C)C1=O (stereo unspecified)

>  <unitString>
%

>  <readoutNumber>
57

$$$$
>  <compound>
CC(C)OC(=O)NNc1cc(Cl)ccc1Cl

>  <unitString>
%

>  <readoutNumber>
57

$$$$
>  <compound>
COc1ccc(-c2cc(-c3cc(C)cc(Cl)c3O)nc3[nH]c(=S)[nH]c(=S)c23)cc1

>  <unitString>
%

>  <readoutNumber>
-31

$$$$
>  <compound>
N#[N+]c1c([O-])c2ccccc2c2ccccc12

>  <unitString>
%

>  <readoutNumber>
-29

$$$$
>  <compound>
O=C1NC(c2cccc(OCc3ccccc3)c2)Nc2ccccc21 (stereo unspecified)

>  <unitString>
%

>  <readoutNumber>
36

$$$$
>  <compound>
C/C1=C/C2OC(=O)C3(C)C2C(CC2(C)OC1=CC2=O)OC3(O)C(C)C (stereo unspecified)

>  <unitString>
%

>  <readoutNumber>
24

$$$$
>  <compound>
CC(CN(C)C)C(=O)/C=C/c1ccc(Cl)c(Cl)c1 (stereo unspecified)

>  <unitString>
%

>  <readoutNumber>
-7

$$$$
>  <compound>
Nc1ccc2c(c1)C(=O)c1c(F)cccc1-2

>  <unitString>
%

>  <readoutNumber>
-120

$$$$

The reported value for Cc1ccc(NC(=O)CCC(=O)C(C)C(=O)c2ccccc2)c(C)c1 (stereo unspecified) in terms of growth inhibition is 6

* * *

growth inhibition by entry:
testProtocol: NCI Yeast Anticancer Drug Screen. Data for the wt2 strain (AID 169);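 note: 0% = growth of vehicle-treated yeast cultures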
conditionSet: S. cerevisiae wt2 strain growth inhibition; at 11.0 µM; hits give high values
Protocol: Growth inhibition of yeast strains with defined genetic alterations is measured as a screen for potential anti-cancer activity. Selected strains with alterations in DNA damage repair or cell cycle control were exposed to compounds and growth inhibition was measured relative to vehicle treated controls. The strain used in this assay is wt2
Compounds without any hit were thinned out: in the full panel of roughly 79,000, 15% have a hit.
Answer with a number only, understood to be in %.

Observe how each entry below is paired with its result.
>  <compound>
O=C(C(Cl)=C(N1CCCCC1)N1CCCCC1)C(Cl)Cl

>  <measuredAttribute>
growth inhibition

>  <unitString>
%

>  <readoutNumber>
2

$$$$
>  <compound>
Cc1cccc(C)c1NC(=O)C(C#N)C1=C(Cl)C(=O)c2ccccc2C1=O (configuration not stated)

>  <measuredAttribute>
growth inhibition

>  <unitString>
%

>  <readoutNumber>
98

$$$$
>  <compound>
CC1(C)C(O)OC(O)C1(C)C (configuration not stated)

>  <measuredAttribute>
growth inhibition

>  <unitString>
%

>  <readoutNumber>
5

$$$$
>  <compound>
O=[N+]([O-])c1ccc(S(=O)(=O)Cc2ccccc2)c([N+](=O)[O-])c1

>  <measuredAttribute>
growth inhibition

>  <unitString>
%

>  <readoutNumber>
37

$$$$
>  <compound>
COc1cccc(C(NC2=NCCC=N2)c2cc3c(cc2O)OCO3)c1O (configuration not stated)

>  <measuredAttribute>
growth inhibition

>  <unitString>
%

>  <readoutNumber>
5

$$$$

Turning to the following compound.
For this compound ( N#CCCC1C(C#N)C2(Cl)CC1(Cl)C(Cl)=C2Cl (configuration not stated) ), measured growth inhibition is 0

* * *

testProtocol: NCI Yeast Anticancer Drug Screen. Data for the wt1 strain (AID 149);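 note: 0% = growth of vehicle-treated wt1 cultures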
conditionSet: S. cerevisiae wt1 strain (SPY 50644) growth inhibition; at 3.7 µM; hits give high values
The panel holds about 79,000 compounds, 15% with a hit somewhere; the sample as a whole holds those more often.
measuredAttribute: growth inhibition (%)
Write it as a number; the unit % goes unstated.

Check out these entries, answers already filled in.
>  <structureString>
COc1ccc2cc3c4cc5c(cc4cc[n+]3cc2c1OC)OCO5

>  <growth inhibition [%]>
29

$$$$
>  <structureString>
O=C(C(Cl)=C(N1CCCCC1)N1CCCCC1)C(Cl)Cl

>  <growth inhibition [%]>
0

$$$$
>  <structureString>
CCCCCc1c(CCCC)c(=O)[nH]c2cc(CNCC(OC)OC)ccc12

>  <growth inhibition [%]>
7

$$$$
>  <structureString>
CC(=O)NC(c1nc2cc(C)c(C)cc2[nH]1)c1nc2cc(C)c(C)cc2[nH]1

>  <growth inhibition [%]>
-28

$$$$
>  <structureString>
CCOC(=O)C(Cc1c2ccccc2cc2ccccc12)(NC(C)=O)C(=O)OCC

>  <growth inhibition [%]>
0

$$$$
>  <structureString>
NC(=S)N1N=C2c3ccccc3CC[C@@H]2[C@@H]1c1ccccc1

>  <growth inhibition [%]>
2

$$$$
>  <structureString>
O=C(Oc1ccc([N+](=O)[O-])cc1)c1ccc([N+](=O)[O-])cc1

>  <growth inhibition [%]>
0

$$$$
>  <structureString>
CN(N=O)C(=O)Nc1ccc(C(=O)O)cc1

>  <growth inhibition [%]>
-3

$$$$
>  <structureString>
O=c1cccccc1[O-].O=c1cccccc1[O-].O=c1cccccc1[O-].[Eu+3]

>  <growth inhibition [%]>
2

$$$$
>  <structureString>
O/N=c1/ccn(O)c2ccccc12

>  <growth inhibition [%]>
8

$$$$

Could you now consider this next compound?
// growth inhibition value for CC(C)N(CCCNc1c2ccccc2nc2cccc([N+](=O)[O-])c12)C(C)C : 5

* * *

testProtocol: NCI Yeast Anticancer Drug Screen. Data for the mlh1 rad18 strain (AID 175)
conditionSet: S. cerevisiae mlh1 rad18 strain growth inhibition; at 5.0 µM (retest, dose inferred, filed as 0.5); hits give high values
Compounds without any hit were thinned out: in the full panel of roughly 79,000, 15% have a hit.
measuredAttribute: growth inhibition (%)
// units = %; emit number, no label

>  <molecule>
OC(Cc1cccc2ccccc12)CN1CCC(c2ccccc2)CC1 (centres undefined)

>  <growth inhibition [%]>
74

$$$$
>  <molecule>
C[C@H](CCC1=NC(C)(C)CO1)C1CCC2[C@@H]3C(O)C[C@@H]4CC(O)CC[C@]4(C)C3CC[C@@]21C (some centres undefined)

>  <growth inhibition [%]>
-7

$$$$
>  <molecule>
O=C1C=C(NCCc2cc(Br)c(O)c(Br)c2)C(=O)c2ncccc21

>  <growth inhibition [%]>
21

$$$$

Lab note: next molecule to report on.
Short answer for BrC1C2CCC3OC3C12 (centres undefined) : growth inhibition was 74

* * *

testProtocol: NCI Yeast Anticancer Drug Screen. Data for the wt2 strain (AID 169);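 note: 0% = growth of vehicle-treated yeast cultures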
conditionSet: S. cerevisiae wt2 strain growth inhibition; at 3.7 µM; hits give high values
Compounds without any hit were thinned out: in the full panel of roughly 79,000, 15% have a hit.
A collection of compounds and their measured growth inhibition
Answer in %, number only, no unit symbol.

Please review the following examples before continuing.
>  <compound>
Cc1ccccc1NC(=O)c1c(C)oc2c1C(=O)c1ccccc1C2=O

>  <unitString>
%

>  <growth inhibition>
-7

$$$$
>  <compound>
O=[N+]([O-])[O][Sn]([O][Sn]([O][N+](=O)[O-])([c]1ccccc1)[c]1ccccc1)([c]1ccccc1)[c]1ccccc1

>  <unitString>
%

>  <growth inhibition>
-47

$$$$
>  <compound>
Cc1ccc(S(=O)(=O)N/N=C/C(Br)=C(/Br)C(=O)O)cc1

>  <unitString>
%

>  <growth inhibition>
10

$$$$
>  <compound>
O=S(=O)(NNc1ccccc1)c1ccccc1

>  <unitString>
%

>  <growth inhibition>
-1

$$$$
>  <compound>
c1cc(-c2sc(-c3ccncc3)c(-c3ccncc3)c2-c2ccncc2)ccn1

>  <unitString>
%

>  <growth inhibition>
0

$$$$
>  <compound>
Nc1ccc(N=Nc2ccc(-c3ccc(O)cc3)cc2)c2ccc(S(=O)(=O)O)cc12

>  <unitString>
%

>  <growth inhibition>
2

$$$$
>  <compound>
C[N+](C)([O-])CCCNc1c2ccccc2nc2cccc([N+](=O)[O-])c12

>  <unitString>
%

>  <growth inhibition>
20

$$$$
>  <compound>
NC(N)=NS(=O)(=O)c1ccc(Nc2c3ccccc3nc3c(C(=O)NC(CO)(CO)CO)cccc23)cc1

>  <unitString>
%

>  <growth inhibition>
-2

$$$$
>  <compound>
O=C(O)c1ccccc1C(=O)OC1CCc2ccccc2C1 (stereo not given)

>  <unitString>
%

>  <growth inhibition>
-6

$$$$

growth inhibition recorded for this compound, O=C(/C(=C/c1ccc(O)cc1)c1ccccc1)c1ccccc1 , is -31
